biological target: Cav3.1 (Homo sapiens); construct: expressed in transfected cells; host or cells: HEK293 Flp-In T-REx; experiment: Whole-cell voltage-clamp electrophysiology in HEK293 Flp-In T-REx cells; format: cell-based; details: patch clamp, step −100 mV to −30 mV every 12 s; read-out: IC50, tonic inhibition of Cav3.1 current amplitude
Measurement Label: IC50

{"Structure": "CCCc1cc(O)c(C/C=C(\\C)CCC=C(C)C)c(O)c1C(=O)O", "System Under Test": "Cav3.1 (Homo sapiens)", "Experimental Value": "3 µM"}
{"Structure": "C=C(C)[C@@H]1CCC(C)=C[C@H]1c1c(O)cc(CCC)c(C(=O)O)c1O", "System Under Test": "Cav3.1 (Homo sapiens)", "Experimental Value": "7 µM"}

----------
biological target: Cav3.1 (Homo sapiens, UniProt O43497); construct: expressed in transfected cells; host or cells: HEK293 Flp-In T-REx; test: FLIPR calcium 5 assay, inhibition of 10 mM Ca-induced fluorescence; assay type: cell-based; conditions: FLIPR concentration-response, HEK293 Cav3.1 cells; read-out: IC50, inhibition of change in fluorescence, Cav3.1
Sequence (O43497 whole entry): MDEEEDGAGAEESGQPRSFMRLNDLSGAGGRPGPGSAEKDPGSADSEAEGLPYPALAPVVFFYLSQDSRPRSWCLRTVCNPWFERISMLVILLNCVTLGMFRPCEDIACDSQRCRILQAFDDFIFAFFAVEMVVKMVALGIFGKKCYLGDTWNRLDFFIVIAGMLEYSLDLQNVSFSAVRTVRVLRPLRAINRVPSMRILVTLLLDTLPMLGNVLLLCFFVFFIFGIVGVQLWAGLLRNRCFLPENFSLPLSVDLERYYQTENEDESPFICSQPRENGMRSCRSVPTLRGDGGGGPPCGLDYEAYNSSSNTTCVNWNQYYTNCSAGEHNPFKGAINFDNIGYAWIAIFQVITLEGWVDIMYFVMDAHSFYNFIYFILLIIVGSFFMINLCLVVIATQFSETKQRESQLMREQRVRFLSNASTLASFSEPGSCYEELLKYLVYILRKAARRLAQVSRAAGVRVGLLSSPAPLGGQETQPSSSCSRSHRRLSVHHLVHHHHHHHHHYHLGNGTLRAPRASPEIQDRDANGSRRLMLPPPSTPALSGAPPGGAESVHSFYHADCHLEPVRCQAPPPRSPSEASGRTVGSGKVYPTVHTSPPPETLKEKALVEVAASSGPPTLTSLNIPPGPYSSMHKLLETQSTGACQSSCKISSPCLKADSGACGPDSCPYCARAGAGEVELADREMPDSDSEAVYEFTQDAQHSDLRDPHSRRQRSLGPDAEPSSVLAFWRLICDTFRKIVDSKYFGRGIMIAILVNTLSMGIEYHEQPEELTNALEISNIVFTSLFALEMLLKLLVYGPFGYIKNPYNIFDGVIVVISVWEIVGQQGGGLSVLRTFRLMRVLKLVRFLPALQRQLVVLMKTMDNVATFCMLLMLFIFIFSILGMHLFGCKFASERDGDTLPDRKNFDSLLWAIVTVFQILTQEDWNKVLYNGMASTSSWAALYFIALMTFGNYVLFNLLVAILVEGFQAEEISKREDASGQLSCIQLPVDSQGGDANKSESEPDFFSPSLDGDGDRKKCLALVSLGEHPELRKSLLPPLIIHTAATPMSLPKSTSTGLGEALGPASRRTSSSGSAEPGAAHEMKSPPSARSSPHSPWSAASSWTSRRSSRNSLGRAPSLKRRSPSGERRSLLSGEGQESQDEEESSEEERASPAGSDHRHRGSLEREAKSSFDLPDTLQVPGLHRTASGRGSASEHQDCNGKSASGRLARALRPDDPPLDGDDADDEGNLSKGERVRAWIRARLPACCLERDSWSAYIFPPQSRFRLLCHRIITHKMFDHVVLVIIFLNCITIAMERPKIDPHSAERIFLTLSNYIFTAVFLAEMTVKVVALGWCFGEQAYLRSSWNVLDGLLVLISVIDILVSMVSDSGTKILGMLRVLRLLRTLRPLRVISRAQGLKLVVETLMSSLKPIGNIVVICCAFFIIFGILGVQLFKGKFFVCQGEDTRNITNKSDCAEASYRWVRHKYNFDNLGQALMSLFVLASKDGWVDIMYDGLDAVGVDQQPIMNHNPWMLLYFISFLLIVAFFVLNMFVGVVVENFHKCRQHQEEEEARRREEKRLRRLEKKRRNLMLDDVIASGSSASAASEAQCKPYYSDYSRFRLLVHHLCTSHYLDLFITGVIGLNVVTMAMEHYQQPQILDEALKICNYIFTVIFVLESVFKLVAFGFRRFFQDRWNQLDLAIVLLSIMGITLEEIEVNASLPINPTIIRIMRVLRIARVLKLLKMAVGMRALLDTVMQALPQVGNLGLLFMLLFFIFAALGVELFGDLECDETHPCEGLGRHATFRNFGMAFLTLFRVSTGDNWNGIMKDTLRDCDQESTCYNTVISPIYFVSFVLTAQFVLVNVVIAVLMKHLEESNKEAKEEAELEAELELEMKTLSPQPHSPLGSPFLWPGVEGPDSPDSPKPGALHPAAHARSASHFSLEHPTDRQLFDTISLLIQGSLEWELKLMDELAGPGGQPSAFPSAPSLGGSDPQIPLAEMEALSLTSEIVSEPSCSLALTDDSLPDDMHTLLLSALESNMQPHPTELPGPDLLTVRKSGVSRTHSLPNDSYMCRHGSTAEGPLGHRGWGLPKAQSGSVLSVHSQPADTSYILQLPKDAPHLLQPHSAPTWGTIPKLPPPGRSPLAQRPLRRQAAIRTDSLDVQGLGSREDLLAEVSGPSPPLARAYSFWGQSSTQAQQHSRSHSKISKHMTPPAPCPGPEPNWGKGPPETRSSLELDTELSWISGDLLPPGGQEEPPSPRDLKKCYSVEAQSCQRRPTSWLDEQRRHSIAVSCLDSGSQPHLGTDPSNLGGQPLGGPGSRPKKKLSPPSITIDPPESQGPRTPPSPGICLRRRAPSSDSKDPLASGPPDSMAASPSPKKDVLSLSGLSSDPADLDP
pIC50: −log10 of the molar value.
Measurement Label: pIC50

{"Molecule": "CCCc1cc(O)c(C/C=C(\\C)CCC=C(C)C)c(O)c1C(=O)O", "System Under Test": "Cav3.1 (Homo sapiens, UniProt O43497)", "Experimental Value": 5.22}
{"Molecule": "C=C(C)[C@@H]1CCC(C)=C[C@H]1c1c(O)cc(CCC)c(C(=O)O)c1O", "System Under Test": "Cav3.1 (Homo sapiens, UniProt O43497)", "Experimental Value": 5.70}
{"Molecule": "CC(C)[C@H]1c2ccc(F)cc2CC[C@@]1(CCN(C)CCCc1nc2ccccc2[nH]1)OC(=O)C1CC1 [NNC550396, reference compound]", "System Under Test": "Cav3.1 (Homo sapiens, UniProt O43497)", "Experimental Value": 6.14}

----------
target: Cav3.3 (Homo sapiens, UniProt Q9P0X4); construct: expressed in transfected cells; host or cells: HEK293 Flp-In T-REx; assay: FLIPR calcium 5 assay, inhibition of 10 mM Ca-induced fluorescence; assay type: cell-based; settings: 10 µM compound, HEK293 cells, mean ± SEM
Sequence (Q9P0X4 whole entry): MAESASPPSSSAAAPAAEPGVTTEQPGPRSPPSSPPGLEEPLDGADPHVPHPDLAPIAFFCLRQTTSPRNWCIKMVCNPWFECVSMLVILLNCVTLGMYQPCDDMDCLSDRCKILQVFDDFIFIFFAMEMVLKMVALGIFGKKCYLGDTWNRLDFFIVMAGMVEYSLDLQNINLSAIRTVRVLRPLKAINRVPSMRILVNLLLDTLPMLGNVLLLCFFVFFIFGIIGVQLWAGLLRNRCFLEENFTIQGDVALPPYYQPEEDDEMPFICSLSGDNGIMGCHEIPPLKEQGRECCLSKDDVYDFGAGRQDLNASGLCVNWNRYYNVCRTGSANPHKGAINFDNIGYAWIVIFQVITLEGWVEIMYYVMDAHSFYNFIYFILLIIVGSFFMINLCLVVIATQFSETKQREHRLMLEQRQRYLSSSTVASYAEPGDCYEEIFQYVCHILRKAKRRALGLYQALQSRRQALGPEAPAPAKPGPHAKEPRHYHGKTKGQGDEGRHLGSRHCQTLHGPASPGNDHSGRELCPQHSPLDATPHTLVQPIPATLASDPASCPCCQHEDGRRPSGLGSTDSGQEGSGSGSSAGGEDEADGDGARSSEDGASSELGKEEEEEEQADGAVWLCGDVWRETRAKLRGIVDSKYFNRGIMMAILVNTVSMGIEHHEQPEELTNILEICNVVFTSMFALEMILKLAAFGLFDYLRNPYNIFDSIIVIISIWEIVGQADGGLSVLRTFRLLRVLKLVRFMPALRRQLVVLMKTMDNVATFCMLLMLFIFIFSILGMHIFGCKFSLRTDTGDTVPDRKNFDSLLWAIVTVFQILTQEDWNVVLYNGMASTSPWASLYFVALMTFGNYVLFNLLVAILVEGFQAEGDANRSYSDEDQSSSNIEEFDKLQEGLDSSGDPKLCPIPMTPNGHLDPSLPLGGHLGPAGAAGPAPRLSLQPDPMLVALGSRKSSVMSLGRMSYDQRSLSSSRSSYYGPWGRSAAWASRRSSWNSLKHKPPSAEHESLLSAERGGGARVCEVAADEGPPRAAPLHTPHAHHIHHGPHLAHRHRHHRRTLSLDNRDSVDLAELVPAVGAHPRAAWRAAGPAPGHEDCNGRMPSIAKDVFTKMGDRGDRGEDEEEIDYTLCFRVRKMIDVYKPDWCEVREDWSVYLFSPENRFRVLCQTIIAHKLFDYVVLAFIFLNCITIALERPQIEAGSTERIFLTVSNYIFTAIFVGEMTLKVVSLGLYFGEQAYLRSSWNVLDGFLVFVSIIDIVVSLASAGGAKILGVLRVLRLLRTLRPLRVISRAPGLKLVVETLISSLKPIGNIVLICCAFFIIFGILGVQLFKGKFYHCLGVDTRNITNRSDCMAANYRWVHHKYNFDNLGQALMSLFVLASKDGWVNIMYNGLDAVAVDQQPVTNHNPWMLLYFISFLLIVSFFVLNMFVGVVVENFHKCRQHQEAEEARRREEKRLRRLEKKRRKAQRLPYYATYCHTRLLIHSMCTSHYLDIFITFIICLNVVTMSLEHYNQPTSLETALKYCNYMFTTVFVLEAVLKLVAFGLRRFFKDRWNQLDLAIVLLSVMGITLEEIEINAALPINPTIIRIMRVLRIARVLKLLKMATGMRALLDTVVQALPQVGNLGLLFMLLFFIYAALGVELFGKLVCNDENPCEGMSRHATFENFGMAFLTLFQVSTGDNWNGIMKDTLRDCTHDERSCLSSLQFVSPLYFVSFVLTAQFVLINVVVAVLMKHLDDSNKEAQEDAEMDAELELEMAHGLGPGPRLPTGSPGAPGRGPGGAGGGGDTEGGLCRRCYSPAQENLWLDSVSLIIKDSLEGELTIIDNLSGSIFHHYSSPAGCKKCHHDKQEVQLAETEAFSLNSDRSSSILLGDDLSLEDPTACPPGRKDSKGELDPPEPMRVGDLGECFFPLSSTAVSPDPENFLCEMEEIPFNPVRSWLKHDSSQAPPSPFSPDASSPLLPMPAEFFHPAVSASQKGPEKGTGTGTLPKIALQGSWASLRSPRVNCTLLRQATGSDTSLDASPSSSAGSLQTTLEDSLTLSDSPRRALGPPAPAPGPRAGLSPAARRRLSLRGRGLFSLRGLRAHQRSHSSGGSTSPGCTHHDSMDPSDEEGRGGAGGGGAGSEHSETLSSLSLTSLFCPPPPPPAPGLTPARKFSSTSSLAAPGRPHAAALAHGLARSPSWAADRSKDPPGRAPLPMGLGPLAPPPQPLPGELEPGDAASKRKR

{"Molecule": "CCCc1cc(O)c(C/C=C(\\C)CCC=C(C)C)c(O)c1C(=O)O", "% Inhibition of Fluorescence Cav3.3": "35 ± 11%"}
{"Molecule": "CCCc1cc2c(c(O)c1C(=O)O)C=CC(C)(CCC=C(C)C)O2 (stereo not shown)", "% Inhibition of Fluorescence Cav3.3": "34 ± 12%"}
{"Molecule": "CC(C)[C@H]1c2ccc(F)cc2CC[C@@]1(CCN(C)CCCc1nc2ccccc2[nH]1)OC(=O)C1CC1 [NNC550396, reference compound]", "% Inhibition of Fluorescence Cav3.3": "89 ± 2%"}
{"Molecule": "CCCc1cc(O)c(C/C=C(\\C)CCC=C(C)C)c(O)c1", "% Inhibition of Fluorescence Cav3.3": "6 ± 3%"}
{"Molecule": "CCCc1cc(O)c2c(c1)OC(C)(CCC=C(C)C)C=C2 (stereo not shown)", "% Inhibition of Fluorescence Cav3.3": "1 ± 1%"}
{"Molecule": "CCCCCc1cc2c(c(O)c1C(=O)O)C=CC(C)(CCC=C(C)C)O2 (stereo not shown)", "% Inhibition of Fluorescence Cav3.3": "11 ± 10%"}
{"Molecule": "C=C(C)[C@@H]1CCC(C)=C[C@H]1c1c(O)cc(CCC)c(C(=O)O)c1O", "% Inhibition of Fluorescence Cav3.3": "8 ± 4%"}

----------
target: Cav3.2 (Homo sapiens, UniProt O95180); test: FLIPR calcium 5 assay, inhibition of 10 mM Ca-induced fluorescence; conditions: FLIPR concentration-response, HEK293 Cav3.2 cells; read-out: IC50, inhibition of change in fluorescence, Cav3.2
Measurement Label: IC50

{"Structure": "CCCc1cc(O)c(C/C=C(\\C)CCC=C(C)C)c(O)c1C(=O)O", "System Under Test": "Cav3.2 (Homo sapiens, UniProt O95180)", "Experimental Value": "2 µM"}
{"Structure": "C=C(C)[C@@H]1CCC(C)=C[C@H]1c1c(O)cc(CCC)c(C(=O)O)c1O", "System Under Test": "Cav3.2 (Homo sapiens, UniProt O95180)", "Experimental Value": "11 µM"}
